system: A549; assay: Growth inhibition of human A549 cells after 96 hrs by SRB assay; type: functional, cell-based; conditions: A549, 96 h
measuredParameter: IC50 (nM)
I only need the number, in nM, no unit after it.

Noted for O=C1c2ccc3c4c(c(NCCN5CCCC5)cc(c24)C(=O)N1CCCN1CCOCC1)C(=O)N(CCCN1CCOCC1)C3=O : its IC50 reads 24

Noted for CN1CCN(CCCNc2cc3c4c(c(NCCCN5CCN(C)CC5)cc5c4c2C(=O)N(CCCN2CCOCC2)C5=O)C(=O)N(CCCN2CCOCC2)C3=O)CC1 : its IC50 reads 19

* * *

test system: MCF7; test: Growth inhibition of human MCF7 cells after 96 hrs by SRB assay; assay type: functional, cell-based; conditions: MCF7, 96 h
measuredParameter: IC50 (nM)
I only need the number, in nM, no unit after it.

Noted for O=C1c2ccc3c4c(c(NCCN5CCCC5)cc(c24)C(=O)N1CCCN1CCOCC1)C(=O)N(CCCN1CCOCC1)C3=O : its IC50 reads 159
